The reported numbers originate from patent US7544694B2.

Biological target: NK3 (Homo sapiens, UniProt P29371)
Sequence (P29371 whole entry): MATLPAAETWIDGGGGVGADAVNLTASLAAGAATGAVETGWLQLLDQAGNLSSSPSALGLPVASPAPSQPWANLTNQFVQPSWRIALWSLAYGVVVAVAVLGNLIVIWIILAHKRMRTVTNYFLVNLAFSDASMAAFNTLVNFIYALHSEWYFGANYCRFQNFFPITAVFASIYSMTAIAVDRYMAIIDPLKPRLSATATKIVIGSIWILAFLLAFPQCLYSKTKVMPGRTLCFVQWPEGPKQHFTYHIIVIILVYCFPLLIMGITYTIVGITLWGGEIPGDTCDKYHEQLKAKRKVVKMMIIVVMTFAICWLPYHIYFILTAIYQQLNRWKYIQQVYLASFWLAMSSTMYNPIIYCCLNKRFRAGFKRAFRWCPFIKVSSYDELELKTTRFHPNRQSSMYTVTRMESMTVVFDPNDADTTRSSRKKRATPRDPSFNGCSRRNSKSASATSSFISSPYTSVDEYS
Assay: Signal transduction (ST), intracellular Ca++ (FLIPR), NK3
Format: cell-based
Settings: antagonist, read-out: NK3 pIC50 (converted)
# IC50 values compiled below

Some solved cases for reference:
molecule	IC50
O=C(C=Cc1ccoc1)N1CCC2(CC1)CCN([C@H]1CCN(C(=O)c3cc(C(F)(F)F)cc(C(F)(F)F)c3)[C@H](Cc3ccccc3)C1)CC2 [Compound 85]	> 10 µM
CC(C)(C)C(=O)N1CCC2(CC1)CCN([C@H]1CCN(C(=O)c3cc(C(F)(F)F)cc(C(F)(F)F)c3)[C@H](Cc3ccccc3)C1)CC2 [Compound 7]	> 10 µM

Let us examine a further case.
Endpoint output: IC50 of O=C(C1CC1)N1CCC2(CCN(C[C@H]3CCN(C(=O)c4cc(C(F)(F)F)cc(C(F)(F)F)c4)[C@H](Cc4ccccc4)C3)CC2)CC1 [Compound 179] . Value?
> 10 µM
